Quick reference: MIC A. hydrophila of the listed items.
Tested on: Aeromonas hydrophila
Experiment: MIC against Gram-negative bacteria: Aeromonas hydrophila
Assay type: cell-based
Details: 10 h cultivation at 37° C., 5×10^5 CFU/mL, two-fold serial dilution
Please don't drop the unit; write it after the number.

Some solved entries appear below for comparison.
| substance | target_or_system | value_measured |
| --- | --- | --- |
| PRT1159 (TTDDQENECQHEAVCKDEINRPRCSCSLSYIGRLCV; listed as Homo sapiens) | Aeromonas hydrophila | 25 µg/mL |
| PRT1092 (ILLGCTHQQCLNNGTCIPHFQDGQHGFSCLCPSGYTGSLCE; listed as Homo sapiens) | Aeromonas hydrophila | 12.5 µg/mL |
| PRT1132 (DEHICTTQSPCQNGGQCMYDGGGEYHCVCLPGFHGRDCE; listed as Homo sapiens) | Aeromonas hydrophila | 12.5 µg/mL |

Now turn to the next substance.
Briefly, MIC A. hydrophila measured for PRT1127 (KDGPCVINGSPCQHGGTCVDDEGRASHASCLCPPGFSGNFCE; listed as Homo sapiens) : 50 µg/mL

---

Test system: Proteus mirabilis
Experiment: MIC against Gram-negative bacteria: Proteus mirabilis
Type: cell-based
Settings: P. mirabilis; 10 h cultivation at 37° C.; 5×10^5 CFU/mL
reported_property: MIC (μg/mL) P. mirabilis (µg/mL)
Write down the numeric answer in µg/mL and omit the unit.

| substance | value_measured |
| --- | --- |
| PRT750 (DIDECQVAPGEAPTCDHHCHNHLGGFYCSCRAGYVLHRNKRTCS; listed as Homo sapiens) | 50 |
| PRT160 (KIDYCILDPCRNGATCISSLSGFTCQCPEGYFGSACE; listed as Homo sapiens) | 12.5 |

Briefly, MIC (μg/mL) P. mirabilis measured for PRT771 (VQDLCSKTTCKNDGVCTVRDGKAECRCQSGEDWWYMGERCE; listed as Homo sapiens) : 50

---

Tested on: E. coli BL21
Assay: MIC against Gram-negative bacteria: E. coli BL21
Format: cell-based
Details: 96-well plate, 5×10^5 CFU/mL, 37° C., 10 h
reported_property: MIC E. coli BL21 (µg/mL)
Write down the numeric answer in µg/mL and omit the unit.

| substance | target_or_system | MIC E. coli BL21 [µg/mL] |
| --- | --- | --- |
| PRT613 (CQCSDNIDPNAVGNCNRLTGECLKCIYNTAGFYCDRCKDGFFGNPLAPNPADKCKA; listed as Homo sapiens) | E. coli BL21 | 12.5 |
| PRT600 (CDCNPLGSLPFLTCDVDTGQCLCLSYVTGAHCEECTVGYWGLGNHLHGCSP; listed as Homo sapiens) | E. coli BL21 | 12.5 |
| PRT680 (DVNECAEGSPCSPGWCENLPGSFRCTCAQGYAPAPDGRSCL; listed as Homo sapiens) | E. coli BL21 | 25 |

Briefly, MIC E. coli BL21 measured for PRT594 (CACNNNIDVTDPESCSRVTGECLRCLHNTQGANCQLCKPGHYGSALNQTCRR; listed as Homo sapiens) : 25

Briefly, MIC E. coli BL21 measured for PRT688 (DVDECQLFRDQVCKSGVCVNTAPGYSCYCSNGYYYHTQRLECI; listed as Homo sapiens) : 12.5

Briefly, MIC E. coli BL21 measured for PRT691 (DINECDEAEAASPLCVNARCLNTDGSFRCICRPGFAPTHQPHHCA; listed as Homo sapiens) : 50

Briefly, MIC E. coli BL21 measured for PRT694 (DVDECRRVPPPCAPGRCENSPGSFRCVCGPGFRAGPRAAECL; listed as Homo sapiens) : 25
